Data provenance is paper PMC6156383.

RESULT TYPE: Ki (µM)
I only need the number, in µM, no unit after it.

Query string: Identify the measured Ki of COc1ccc(CC(=O)O[C@@]23CCC(=O)[C@@H]4Oc5c(O)ccc6c5[C@@]42CCN(CC2CC2)[C@@H]3C6)cc1 [Compound 7f] for NOP receptor (Homo sapiens).
Result string: 0.0498

Query string: What reported Ki corresponds to Cc1cccc(CC(=O)O[C@@]23CCC(=O)[C@@H]4Oc5c(O)ccc6c5[C@@]42CCN(CC2CC2)[C@@H]3C6)c1 [Compound 7d] on NOP receptor (Homo sapiens)?
Result string: 0.0499

Query string: Report Ki for COc1ccccc1CC(=O)O[C@@]12CCC(=O)[C@@H]3Oc4c(O)ccc5c4[C@@]31CCN(CC1CC1)[C@@H]2C5 [Compound 7h] tested on NOP receptor (Homo sapiens).
Result string: 0.0623

Query string: API: value(readout= Ki, system= NOP receptor (Homo sapiens), query= O=C(Cc1ccc2c(c1)OCO2)O[C@@]12CCC(=O)[C@@H]3Oc4c(O)ccc5c4[C@@]31CCN(CC1CC1)[C@@H]2C5 [Compound 7g] )
Result string: 0.0943

Query string: Item O=C(Cc1ccccc1)O[C@@]12CCC(=O)[C@@H]3Oc4c(O)ccc5c4[C@@]31CCN(CC1CC1)[C@@H]2C5 [Compound 7a] with NOP receptor (Homo sapiens) - Ki?
Result string: 0.127

Query string: // map Cc1ccc(CC(=O)O[C@@]23CCC(=O)[C@@H]4Oc5c(O)ccc6c5[C@@]42CCN(CC2CC2)[C@@H]3C6)cc1 [Compound 7b] to recorded Ki (system: NOP receptor (Homo sapiens))
Result string: 0.0363

Query string: Lab note: need Ki with NOP receptor (Homo sapiens) for entry O=C(Cc1ccc(Cl)cc1)O[C@@]12CCC(=O)[C@@H]3Oc4c(O)ccc5c4[C@@]31CCN(CC1CC1)C2C5 [Compound 7j] , please look it up.
Result string: 0.0513

---

target: UniProt:P41143; assay: [35S]GTPγS binding stimulation (agonist), CHO membranes; settings: [35S]GTPγS stimulation; * = too little stimulation (if < 15% an EC50 was not always determined)
Sequence (P41143 whole entry): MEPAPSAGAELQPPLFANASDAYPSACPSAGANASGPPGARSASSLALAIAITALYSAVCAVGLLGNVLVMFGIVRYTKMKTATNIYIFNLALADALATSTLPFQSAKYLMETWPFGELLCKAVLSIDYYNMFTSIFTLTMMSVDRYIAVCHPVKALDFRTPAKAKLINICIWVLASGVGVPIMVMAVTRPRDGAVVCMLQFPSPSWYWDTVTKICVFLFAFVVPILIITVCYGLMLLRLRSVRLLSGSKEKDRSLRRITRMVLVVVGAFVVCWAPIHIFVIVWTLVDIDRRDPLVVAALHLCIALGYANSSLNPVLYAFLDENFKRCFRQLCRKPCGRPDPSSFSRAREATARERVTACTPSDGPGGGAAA
RESULT TYPE: EC50 (nM)
Quick note: give the figure in nM, leave out the unit.

Query string: Which EC50 is listed for Cc1ccccc1CC(=O)O[C@@]12CCC(=O)[C@@H]3Oc4c(O)ccc5c4[C@@]31CCN(CC1CC1)[C@@H]2C5 [Compound 7c] ?
Result string: 201

Query string: I have this compound here, COc1ccc(CC(=O)O[C@@]23CCC(=O)[C@@H]4Oc5c(O)ccc6c5[C@@]42CCN(CC2CC2)[C@@H]3C6)cc1 [Compound 7f] , and I need its recorded EC50.
Result string: 59.4

Query string: Value lookup for EC50; key = O=C(Cc1ccccc1)O[C@@]12CCC(=O)[C@@H]3Oc4c(O)ccc5c4[C@@]31CCN(CC1CC1)[C@@H]2C5 [Compound 7a]
Result string: 5.6

---

target: MOP receptor (Homo sapiens, UniProt P35372); construct: expressed in transfected cells; format: biochemical
Sequence (P35372 whole entry): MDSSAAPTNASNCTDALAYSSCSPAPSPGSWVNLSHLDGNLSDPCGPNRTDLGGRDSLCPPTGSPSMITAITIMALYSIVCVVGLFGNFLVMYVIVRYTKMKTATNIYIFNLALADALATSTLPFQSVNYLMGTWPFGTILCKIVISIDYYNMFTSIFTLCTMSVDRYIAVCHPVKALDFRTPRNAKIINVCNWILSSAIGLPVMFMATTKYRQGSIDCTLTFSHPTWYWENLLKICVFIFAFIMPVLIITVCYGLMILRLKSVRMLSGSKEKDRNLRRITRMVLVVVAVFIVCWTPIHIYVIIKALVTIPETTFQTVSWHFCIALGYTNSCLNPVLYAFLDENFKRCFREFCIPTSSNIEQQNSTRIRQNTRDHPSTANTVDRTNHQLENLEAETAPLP
Hi there, I'd appreciate the recorded MOP % stim for every entry that follows.
Numeric answer only, unit % assumed.

Query string: Need MOP % stim, item Cc1cccc(CC(=O)O[C@@]23CCC(=O)[C@@H]4Oc5c(O)ccc6c5[C@@]42CCN(CC2CC2)[C@@H]3C6)c1
Result string: 40.1

Query string: Fill blank: measured MOP % stim of the molecule O=C(Cc1ccccc1F)O[C@@]12CCC(=O)[C@@H]3Oc4c(O)ccc5c4[C@@]31CCN(CC1CC1)[C@@H]2C5 is ____.
Result string: 27.9

Query string: Dear colleague, I am looking for the recorded MOP % stim of the following molecule: O=C(Cc1ccc(Cl)cc1)O[C@@]12CCC(=O)[C@@H]3Oc4c(O)ccc5c4[C@@]31CCN(CC1CC1)C2C5
Result string: 8.2

Query string: What does the data say about its MOP % stim? Entry: O=C(Cc1ccccc1Cl)O[C@@]12CCC(=O)[C@@H]3Oc4c(O)ccc5c4[C@@]31CCN(CC1CC1)[C@@H]2C5
Result string: 39.3

Query string: Which MOP % stim is listed for O=C(Cc1ccccc1)O[C@@]12CCC(=O)[C@@H]3Oc4c(O)ccc5c4[C@@]31CCN(CC1CC1)[C@@H]2C5 ?
Result string: 31.6

Query string: Recorded MOP % stim of COc1ccc(CC(=O)O[C@@]23CCC(=O)[C@@H]4Oc5c(O)ccc6c5[C@@]42CCN(CC2CC2)[C@@H]3C6)cc1 , please.
Result string: 7.8

Query string: For the molecule COc1ccccc1CC(=O)O[C@@]12CCC(=O)[C@@H]3Oc4c(O)ccc5c4[C@@]31CCN(CC1CC1)[C@@H]2C5 , what MOP % stim is on record?
Result string: 37.3

---

For each of the compounds below, state its MOP % stim.
target: MOP receptor (Homo sapiens, UniProt P35372); construct: expressed in transfected cells; format: biochemical
Your answer is read as %, so omit the unit and give the number.

Query string: Entry Cc1ccccc1CC(=O)O[C@@]12CCC(=O)[C@@H]3Oc4c(O)ccc5c4[C@@]31CCN(CC1CC1)[C@@H]2C5 has what MOP % stim?
Result string: 41.9

Query string: # input compound: O=C(Cc1ccc2c(c1)OCO2)O[C@@]12CCC(=O)[C@@H]3Oc4c(O)ccc5c4[C@@]31CCN(CC1CC1)[C@@H]2C5 ; wanted: its MOP % stim
Result string: 12.1

Query string: Could you tell me which MOP % stim is on file for COc1cccc(CC(=O)O[C@@]23CCC(=O)[C@@H]4Oc5c(O)ccc6c5[C@@]42CCN(CC2CC2)C3C6)c1 ?
Result string: 11.3

Query string: Fill in the blank: the reported MOP % stim of Cc1ccc(CC(=O)O[C@@]23CCC(=O)[C@@H]4Oc5c(O)ccc6c5[C@@]42CCN(CC2CC2)[C@@H]3C6)cc1 is ____.
Result string: 34.9

---

biological target: NOP receptor (Homo sapiens, UniProt P41146); assay: [35S]GTPγS binding stimulation (agonist), CHO membranes; conditions: [35S]GTPγS stimulation; average ± SD
Sequence (P41146 whole entry): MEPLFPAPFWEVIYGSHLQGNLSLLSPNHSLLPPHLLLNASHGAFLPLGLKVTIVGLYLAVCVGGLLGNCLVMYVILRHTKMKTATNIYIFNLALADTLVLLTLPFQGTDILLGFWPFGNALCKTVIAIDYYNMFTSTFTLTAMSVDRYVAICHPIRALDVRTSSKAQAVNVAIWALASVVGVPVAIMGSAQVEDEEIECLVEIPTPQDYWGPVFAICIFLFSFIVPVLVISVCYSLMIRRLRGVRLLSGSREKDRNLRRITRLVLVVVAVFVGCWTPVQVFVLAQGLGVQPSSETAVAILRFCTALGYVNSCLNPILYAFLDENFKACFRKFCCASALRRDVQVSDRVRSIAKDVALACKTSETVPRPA
RESULT TYPE: EC50 (µM)
All answers are understood in µM, so give the number only.

Query string: Form field: reported EC50 of O=C(Cc1ccc2c(c1)OCO2)O[C@@]12CCC(=O)[C@@H]3Oc4c(O)ccc5c4[C@@]31CCN(CC1CC1)[C@@H]2C5
Result string: 0.562

Query string: Which EC50 value is on record for COc1ccccc1CC(=O)O[C@@]12CCC(=O)[C@@H]3Oc4c(O)ccc5c4[C@@]31CCN(CC1CC1)[C@@H]2C5 ?
Result string: 0.479

Query string: So what's the measured EC50 for this one? O=C(Cc1ccc(Cl)cc1)O[C@@]12CCC(=O)[C@@H]3Oc4c(O)ccc5c4[C@@]31CCN(CC1CC1)C2C5
Result string: 0.298

Query string: Item Cc1ccc(CC(=O)O[C@@]23CCC(=O)[C@@H]4Oc5c(O)ccc6c5[C@@]42CCN(CC2CC2)[C@@H]3C6)cc1 has what recorded EC50?
Result string: 0.169

Query string: What does the record list as EC50 for O=C(Cc1ccccc1F)O[C@@]12CCC(=O)[C@@H]3Oc4c(O)ccc5c4[C@@]31CCN(CC1CC1)[C@@H]2C5 ?
Result string: 0.0941

Query string: Item O=C(Cc1ccccc1)O[C@@]12CCC(=O)[C@@H]3Oc4c(O)ccc5c4[C@@]31CCN(CC1CC1)[C@@H]2C5 has what recorded EC50?
Result string: 0.401

---

NOP receptor (Homo sapiens, UniProt P41146) measurements of pKi, listed per entry.
Lab note: report pKi as minus log10 of the concentration in molar units, number only.

Query string: Form field - read-out: pKi; system: NOP receptor (Homo sapiens, UniProt P41146); submitted item: O=C(Cc1ccccc1F)O[C@@]12CCC(=O)[C@@H]3Oc4c(O)ccc5c4[C@@]31CCN(CC1CC1)[C@@H]2C5
Result string: 7.16

Query string: API: value(readout=pKi, system=NOP receptor (Homo sapiens, UniProt P41146)) for record O=C(Cc1ccccc1Cl)O[C@@]12CCC(=O)[C@@H]3Oc4c(O)ccc5c4[C@@]31CCN(CC1CC1)[C@@H]2C5
Result string: 7.49

Query string: Recall the recorded pKi for Cc1ccccc1CC(=O)O[C@@]12CCC(=O)[C@@H]3Oc4c(O)ccc5c4[C@@]31CCN(CC1CC1)[C@@H]2C5 with NOP receptor (Homo sapiens, UniProt P41146) and state it.
Result string: 7.36

Query string: What is its pKi for NOP receptor (Homo sapiens, UniProt P41146)? Entry: COc1cccc(CC(=O)O[C@@]23CCC(=O)[C@@H]4Oc5c(O)ccc6c5[C@@]42CCN(CC2CC2)C3C6)c1
Result string: 7.30
